Listing of recorded cAMP release, % activity, 1 µM by entry.
molecular target: human GLP-1 receptor (human, UniProt P43220 24-463); assay: cell-based or functional assay
Sequence (P43220 24-463): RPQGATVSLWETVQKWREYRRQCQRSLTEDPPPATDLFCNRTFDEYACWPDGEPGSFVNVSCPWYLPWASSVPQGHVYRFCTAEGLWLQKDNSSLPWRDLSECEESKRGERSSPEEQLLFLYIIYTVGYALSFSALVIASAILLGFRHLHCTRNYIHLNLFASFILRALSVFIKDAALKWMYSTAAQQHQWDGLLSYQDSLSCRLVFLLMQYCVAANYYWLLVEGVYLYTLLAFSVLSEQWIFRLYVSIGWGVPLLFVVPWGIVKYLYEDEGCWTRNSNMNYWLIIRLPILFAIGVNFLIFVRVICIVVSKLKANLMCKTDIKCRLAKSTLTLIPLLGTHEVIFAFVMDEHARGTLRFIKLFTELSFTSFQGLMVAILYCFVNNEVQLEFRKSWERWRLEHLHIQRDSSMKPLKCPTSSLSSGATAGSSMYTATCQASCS
Starred links: 1 amine or outer side, 2 acyl side, 3 side chain; linkers in the order of their positions; H or OH if unused. Non-standard residues stand in square brackets, D forms with d. No end group written: not given here. *: point of attachment. NMe2F‑APPA = N-methyl-2-amino-5-(2-fluorophenyl)pentanoic acid, CN([C@@H](CCCc1ccccc1F)C(=O)[*:2])[*:1]; AMCB = 2-amino-5-(4-chloro-2-methylphenyl)pentanoic acid, Cc1cc(Cl)ccc1CCC[C@H](N[*:1])C(=O)[*:2]; ACPP = 2-amino-5-(3-chlorophenyl)pentanoic acid, O=C([C@H](CCCc1cccc(Cl)c1)N[*:1])[*:2]; 2CF3,4F‑APPA = 2-amino-5-(4-fluoro-2-(trifluoromethyl)phenyl)pentanoic acid; 2CF3‑APPA = 2-amino-5-(2-(trifluoromethyl)phenyl)pentanoic acid; Bip(2'-Et-4'-OMe) = CCc1cc(OC)ccc1-c1ccc(C[C@H](N)C(=O)O)cc1; Leu(5,5,5,5',5',5'-F6) = N[C@@H](CC(C(F)(F)F)C(F)(F)F)C(=O)O; Nva(5-(3,5-Me2Ph)) = Cc1cc(C)cc(CCC[C@H](N)C(=O)O)c1; 2F‑APPA = 2-amino-5-(2-fluorophenyl)pentanoic acid; αMePhe(2-F) = C[C@](N)(Cc1ccccc1F)C(=O)O; NMeBip(OMe) = N-methylated Bip(OMe); hhPhe = N[C@@H](CCCc1ccccc1)C(=O)O; NMeD = CN[C@@H](CC(=O)O)C(=O)O; aThr = C[C@H](O)[C@H](N)C(=O)O; NMeAPPA = not defined here; CNB = not defined here; Ac3c = NC1(C(=O)O)CC1; Aib = CC(C)(N)C(=O)O; Moc = COC(=O)*

# binder, display_unit, cAMP release, % activity, 1 µM
measured = [
    ("H[Aib][CNB]GTFTSD[Bip(2'-Et-4'-OMe)][2CF3‑APPA] (reading uncertain) [Seq. ID. No. 79: H-Aib-(CNB)-GTFTSD-Bip(OMe)-(2CF3-APPA)]", "%", 99),
    ("H[Aib]QGT[αMePhe(2-F)]TSD[Bip(2'-Et-4'-OMe)][AMCB] [Seq. ID. No. 40: H-Aib-QGT-(α-Me-2F-Phe)-TSD-Bip(OMe)-(AMCB)]", "%", 94),
    ("H[Aib][Leu(5,5,5,5',5',5'-F6)]G[aThr][αMePhe(2-F)][aThr]S[NMeD][NMeBip(OMe)][NMeAPPA] (reading uncertain) [Seq. ID. No. 220: H-Aib-(Hfl)-G-T(allo)-(α-Me-2F-Phe)-T(allo)-S-(NMe)D-((NMe)Bip(OMe))-((NMe)(APPA))]", "%", 99),
    ("H[Aib][Leu(5,5,5,5',5',5'-F6)]GT[αMePhe(2-F)][aThr]SD[Bip(2'-Et-4'-OMe)][2F‑APPA] [Seq. ID. No. 224: H-Aib-(Hfl)-GT-(α-Me-2F-Phe)-T(allo)-SD-Bip(OMe)-(2F-APPA)]", "%", 99),
    ("H[Aib][CNB]G[aThr][αMePhe(2-F)][aThr]SD[Bip(2'-Et-4'-OMe)][hhPhe] (reading uncertain; also: reduced (CH2) bonds between 9-10 and 10-11) [Seq. ID. No. 202: H-Aib-(CNB)-G-T(allo)-(α-Me-2F-Phe)-T(allo)-SD-(CH2)-Bip(OMe)-(CH2)-(APPA)]", "%", 99),
    ("H[Aib][CNB]G[aThr][αMePhe(2-F)][aThr]SD[NMeBip(OMe)][NMe2F‑APPA] (reading uncertain) [Seq. ID. No. 144: H-Aib-(CNB)-G-T(allo)-(α-Me-2F-Phe)-T(allo)-SD-((NMe)Bip(OMe))-((NMe)(2F-APPA))]", "%", 99),
    ("Ac-H[Aib]QG[aThr][αMePhe(2-F)][aThr]SD[Bip(2'-Et-4'-OMe)][hhPhe] [Seq. ID. No. 101: CH3CO-H-Aib-QG-T(allo)-(α-Me-2F-Phe)-T(allo)-SD-Bip(OMe)-(APPA)]", "%", 95),
    ("H[Aib][CNB]G[aThr][αMePhe(2-F)][aThr]SD[Bip(2'-Et-4'-OMe)][2F‑APPA] (reading uncertain; also: thioamide bond between residues 10 and 11) [Seq. ID. No. 168: H-Aib-(CNB)-G-T(allo)-(α-Me-2F-Phe)-T(allo)-SD-Bip(OMe)-(C═S)-(2F-APPA)]", "%", 99),
    ("H[Ac3c]QGTFTSD[Bip(2'-Et-4'-OMe)][2CF3,4F‑APPA] [Seq. ID. No. 72: H-(ACP)-QGTFTSD-Bip(OMe)-(2CF3,4F-APPA)]", "%", 99),
    ("Moc-H[Aib]QG[aThr][αMePhe(2-F)][aThr]SD[Bip(2'-Et-4'-OMe)][2F‑APPA] (also: reduced (CH2) bonds between 9-10 and 10-11) [Seq. ID. No. 200: CH3OCO-H-Aib-QG-T(allo)-(α-Me-2F-Phe)-T(allo)-SD-(CH2)-Bip(OMe)-(CH2)-(2F-APPA)]", "%", 99),
    ("Moc-H[Aib]QG[aThr][αMePhe(2-F)][aThr]SD[Bip(2'-Et-4'-OMe)][hhPhe] (also: reduced (CH2) bonds between 9-10 and 10-11) [Seq. ID. No. 198: CH3OCO-H-Aib-QG-T(allo)-(α-Me-2F-Phe)-T(allo)-SD-(CH2)-Bip(OMe)-(CH2)-(APPA)]", "%", 99),
    ("H[Aib][CNB]GTFTSD[Bip(2'-Et-4'-OMe)][2F‑APPA] (reading uncertain) [Seq. ID. No. 77: H-Aib-(CNB)-GTFTSD-Bip(OMe)-(2F-APPA)]", "%", 95),
    ("Moc-H[Aib]QG[aThr][αMePhe(2-F)][aThr]SD[NMeBip(OMe)][NMe2F‑APPA] [Seq. ID. No. 140: CH3OCO-H-Aib-QG-T(allo)-(α-Me-2F-Phe)-T(allo)-SD-((NMe)Bip(OMe))-((NMe)(2F-APPA))]", "%", 99),
    ("HAQGTFTSD[Bip(2'-Et-4'-OMe)][AMCB] [Seq. ID. No. 16: HAQGTFTSD-Bip(OMe)-(AMCB)]", "%", 99),
    ("H[Aib][CNB]G[aThr][αMePhe(2-F)][aThr]SD[Bip(2'-Et-4'-OMe)][hhPhe] (reading uncertain; also: reduced (CH2) bond between 10 and 11) [Seq. ID. No. 190: H-Aib-(CNB)-G-T(allo)-(α-Me-2F-Phe)-T(allo)-SD-Bip(OMe)-(CH2)-(APPA)]", "%", 95),
    ("Ac-H[Aib][Leu(5,5,5,5',5',5'-F6)]GT[αMePhe(2-F)]TSD[Bip(2'-Et-4'-OMe)][hhPhe] [Seq. ID. No. 210: CH3CO-H-Aib-(Hfl)-GT-(α-Me-2F-Phe)-TSD-Bip(OMe)-(APPA)]", "%", 99),
    ("H[Aib]QGT[αMePhe(2-F)]TSD[Bip(2'-Et-4'-OMe)][ACPP] [Seq. ID. No. 39: H-Aib-QGT-(α-Me-2F-Phe)-TSD-Bip(OMe)-(ACPP)]", "%", 95),
    ("H[Ac3c]QGTFTSD[Bip(2'-Et-4'-OMe)][Nva(5-(3,5-Me2Ph))] [Seq. ID. No. 22: H-(ACP)-QGTFTSD-Bip(OMe)-(ADMP)]", "%", 99),
    ("H[Aib][Leu(5,5,5,5',5',5'-F6)]GT[αMePhe(2-F)]TSD[Bip(2'-Et-4'-OMe)][AMCB] [Seq. ID. No. 237: H-Aib-(Hfl)-GT-(α-Me-2F-Phe)-TSD-Bip(OMe)-(AMCB)]", "%", 99),
]
